Collected Papp at 5 h, 5 µM values appear next to each entry.
assay: Apparent permeability of the compound at 5 uM after 5 hrs by PAMPA; type: physicochemical
Form entry: value (nm/s) — number only.

Here is how some compounds turned out for Papp at 5 h, 5 µM.
{"SMILES STR": "Cn1ncn(-c2ccc(C(=O)N[C@@H]3CCN(c4ncc(Cl)c5c(N)noc45)C3)c(Cl)c2)c1=O", "MEASURE UNIT": "nm/s", "Papp at 5 h, 5 µM": 103}
{"SMILES STR": "Nc1noc2c(N3CC[C@@H](NC(=O)c4ccc(-n5cnc(CCO)c5)cc4Cl)C3)ncc(Cl)c12", "MEASURE UNIT": "nm/s", "Papp at 5 h, 5 µM": 16}
{"SMILES STR": "Nc1noc2c(N3CC[C@@H](NC(=O)c4ccc(-n5cnc6ccccc65)cc4Cl)C3)ncc(Cl)c12", "MEASURE UNIT": "nm/s", "Papp at 5 h, 5 µM": 33}

Please turn your attention to the following entry.
GET /value?item= Nc1noc2c(N3CC[C@@H](NC(=O)c4ccc(-n5cnc6ncccc65)cc4Cl)C3)ncc(Cl)c12 &field=Papp at 5 h, 5 µM returns 31

###

experiment: Tmax in rat at 10 mg/kg, po; assay type: ADME, organism-based; conditions: in vivo
VALUE TYPE: Tmax (h)
The response must be a number in h with no trailing unit.

Entry Cc1ncn(-c2ccc(C(=O)N[C@H]3[C@H]4CC[C@H]3N(c3ncc(Cl)c5cnoc35)C4)c(Cl)c2)n1 — recorded Tmax = 1

###

experiment: Solubility of the compound in phosphate buffer at pH 7.4 measured after 1.5 hrs by UV absorbance method; assay type: physicochemical
VALUE TYPE: solubility at 1.5 h (µM)
Reply with just the number (in µM).

The reported solubility at 1.5 h of the compound Cc1ncn(-c2ccc(C(=O)N[C@H]3[C@H]4CC[C@H]3N(c3ncc(Cl)c5cnoc35)C4)c(Cl)c2)n1 was 29

###

assay: Metabolic stability in dog liver microsomes at 1 uM measured after 20 mins in presence of NADP+ by LC-MS/MS method; type: ADME, Canis lupus familiaris, microsome; details: read-out: Stability
VALUE TYPE: remaining at 20 min, 1 µM
Remember to follow the number with its unit.

Input Cc1ncn(-c2ccc(C(=O)N[C@H]3[C@H]4CC[C@H]3N(c3ncc(Cl)c5cnoc35)C4)c(Cl)c2)n1 . Output remaining at 20 min, 1 µM: 11%

###

// values below are pIC50; system is Coagulation factor IX (Homo sapiens, UniProt P00740)
Sequence (P00740 47-191 limits assumed): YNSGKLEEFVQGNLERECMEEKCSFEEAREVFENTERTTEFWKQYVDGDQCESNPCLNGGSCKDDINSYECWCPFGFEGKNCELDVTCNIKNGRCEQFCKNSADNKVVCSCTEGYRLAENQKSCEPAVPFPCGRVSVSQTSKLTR
Sequence (P00740 227-461 limits assumed): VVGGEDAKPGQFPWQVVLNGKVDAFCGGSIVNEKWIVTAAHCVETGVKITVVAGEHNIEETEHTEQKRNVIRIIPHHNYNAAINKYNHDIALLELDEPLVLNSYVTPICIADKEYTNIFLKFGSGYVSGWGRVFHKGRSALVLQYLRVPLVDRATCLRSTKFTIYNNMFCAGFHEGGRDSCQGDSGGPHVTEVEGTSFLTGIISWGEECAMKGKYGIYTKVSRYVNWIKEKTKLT
Please note pIC50 is a logarithmic value: minus log10 of concentration in mol/L. Answer with that number alone.

Examples with answers:
{"COMPOUND": "Cn1ncn(-c2ccc(C(=O)N[C@@H]3CCN(c4ncc(Cl)c5c(N)noc45)C3)c(Cl)c2)c1=O", "pIC50": 7.82}
{"COMPOUND": "Nc1noc2c(N3CCC(NC(=O)c4ccc(-n5cnnc5)cc4Cl)C3)cccc12 (racemic)", "pIC50": 7.01}

Entry Nc1noc2c(N3CC[C@@H](NC(=O)c4ccc(-n5cnc(CCO)c5)cc4Cl)C3)ncc(Cl)c12 , tested on Coagulation factor IX (Homo sapiens, UniProt P00740), has a reported pIC50 of 7.89

The compound Cn1cc(-c2ccc(C(=O)N[C@@H]3CCN(c4ncc(Cl)c5c(N)noc45)C3)c(Cl)c2)cnc1=O , tested on Coagulation factor IX (Homo sapiens, UniProt P00740), showed pIC50 of 7.44

###

experiment: AUCt in rat at 1 mg/kg, iv; assay type: ADME, organism-based; conditions: in vivo
VALUE TYPE: AUC(0-t) (µg·h/mL)
Report the figure in µg·h/mL without appending any unit label.

Summary for this compound, Cc1ncn(-c2ccc(C(=O)N[C@H]3[C@H]4CC[C@H]3N(c3ncc(Cl)c5cnoc35)C4)c(Cl)c2)n1 : AUC(0-t) is 1.01

###

experiment: Half life in dog at 0.3 mg/kg, iv; type: ADME, organism-based, Canis lupus familiaris; conditions: in vivo
VALUE TYPE: half-life (h)
Could you give me the number in h? Just the number is fine.

So, Cc1ncn(-c2ccc(C(=O)N[C@H]3[C@H]4CC[C@H]3N(c3ncc(Cl)c5cnoc35)C4)c(Cl)c2)n1 ? Its half-life was 4.7

###

assay: Cmax in rat at 1 mg/kg, po administered as cassette dose; assay type: ADME, organism-based; set-up: dose 1 mg/kg, route oral; settings: in vivo
Label rule, in plain words: Cmax of 200 ng/mL and up is Yes, under 200 ng/mL is No.

{"SMILES STR": "Nc1noc2c(N3CC[C@@H](NC(=O)c4ccc(-n5cnc6ccccc65)cc4Cl)C3)ncc(Cl)c12", "CATEGORY": "No"}

Here is another compound to look at.
Is Cmax for Nc1noc2c(N3CC[C@@H](NC(=O)c4ccc(-n5cnnc5C(F)F)cc4Cl)C3)ncc(Cl)c12 at or above 200 ng/mL?
No

###

Quick record: IC50, Coagulation factor IX (Homo sapiens).
Expressed in nM, but write only the number.

// solved cases for IC50 follow
{"MOLECULE": "Cc1ncn(-c2ccc(C(=O)N[C@@H]3CCN(c4ncc(Cl)c5c(N)noc45)C3)c(Cl)c2)n1", "IC50, nM": 33}
{"MOLECULE": "Nc1noc2c(N3CC[C@@H](NC(=O)c4ccc(-c5cncnc5)cc4Cl)C3)ncc(Cl)c12", "IC50, nM": 26}
{"MOLECULE": "Cc1cc(N2CC[C@@H](NC(=O)c3ccc(-n4cnnc4)cc3Cl)C2)c2onc(N)c2c1Cl", "IC50, nM": 62}

Please find the next molecule below.
Entry Cc1cc(N2CCC(NC(=O)c3ccc(-n4cnnc4)cc3Cl)C2)c2onc(N)c2c1 (racemic) ; assay system Coagulation factor IX (Homo sapiens); IC50 recorded at 50

###

assay: Cmax in rat at 1 mg/kg, po administered as cassette dose; format: ADME, organism-based; set-up: dose 1 mg/kg, route oral; conditions: in vivo
VALUE TYPE: Cmax (ng/mL)
Report the value in ng/mL with no unit label.

{"SMILES STR": "Nc1noc2c(N3CC[C@@H](NC(=O)c4ccc(-n5cnnc5)cc4Cl)C3)ncc(Cl)c12", "MEASURE UNIT": "ng/mL", "VALUE": 120}

Looking up Cc1ncn(-c2ccc(C(=O)N[C@@H]3CCN(c4ncc(Cl)c5c(N)noc45)C3)c(Cl)c2)n1 , I see its Cmax listed as 330

Sure, the documented Cmax for Nc1noc2c(N3CC[C@@H](NC(=O)c4ccc(-n5cnc(CCO)c5)cc4Cl)C3)ncc(Cl)c12 is 210

Note to self: Cmax recorded for Cn1ncn(-c2ccc(C(=O)N[C@@H]3CCN(c4ncc(Cl)c5c(N)noc45)C3)c(Cl)c2)c1=O was 390

Looking up Cn1cc(-c2ccc(C(=O)N[C@@H]3CCN(c4ncc(Cl)c5c(N)noc45)C3)c(Cl)c2)ccc1=O , I found its Cmax recorded as 510

The compound Nc1noc2c(N3CC[C@@H](NC(=O)c4ccc(-c5cncnc5)cc4Cl)C3)ncc(Cl)c12 showed Cmax equal to 380
